system.under.test: human A2A receptor (A2AR) (Homo sapiens, UniProt P29274)
Sequence (P29274 whole entry): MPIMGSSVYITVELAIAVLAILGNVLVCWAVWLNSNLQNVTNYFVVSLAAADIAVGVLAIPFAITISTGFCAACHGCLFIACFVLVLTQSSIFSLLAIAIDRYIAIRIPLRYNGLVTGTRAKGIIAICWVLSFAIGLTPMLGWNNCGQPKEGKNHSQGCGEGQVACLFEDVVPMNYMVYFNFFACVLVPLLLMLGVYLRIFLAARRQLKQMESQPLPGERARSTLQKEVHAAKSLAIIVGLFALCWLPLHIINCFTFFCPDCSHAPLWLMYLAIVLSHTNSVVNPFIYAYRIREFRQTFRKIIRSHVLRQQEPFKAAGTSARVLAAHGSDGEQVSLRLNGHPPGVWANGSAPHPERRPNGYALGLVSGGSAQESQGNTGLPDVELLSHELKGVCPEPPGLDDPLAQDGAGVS
assay.text: Luciferase reporter assay (HEK293-A2AR-luc2p/CRE/Hygro cells, 3 nM CGS21680)
test.settings: 3 nM CGS21680, 5 h incubation
endpoint.name: IC50 (nM)

// solved cases for IC50 follow
CN(C)C(=O)c1ccccc1N1CCN(C(=O)C(C)(c2ccccc2)n2ncc3c2nc(N)n2nc(-c4ccco4)nc32)CC1 (stereo not shown)
13.7
COCCOc1ccc(N2CCN(C(=O)C(c3ccccc3)n3cc4c(nc(N)n5nc(-c6ccco6)nc45)n3)CC2)cc1 (stereo not shown)
9.5
COCCOc1ccc(N2CCN(C(=O)C(c3ccccc3OC)n3ncc4c3nc(N)n3nc(-c5ccco5)nc43)CC2)cc1 (stereo not shown) [Compound A31]
0.6
COCCOc1ccc(N2CCN(C(=O)C(c3ccccc3)n3ncc4c3nc(N)n3nc(-c5ccco5)nc43)CC2C)cc1 (single isomer, unassigned) [Compound A47a]
17.3

1: COCCOc1ccc(N2CCN(C(=O)C(COC)n3ncc4c3nc(N)n3nc(-c5ccco5)nc43)CC2)cc1 (stereo not shown)
2: CN(C)CCOc1ccc(N2CCN(C(=O)C(C)(c3ccccc3)n3ncc4c3nc(N)n3nc(-c5ccco5)nc43)CC2)cc1 (single isomer, unassigned) [Compound A71b]
Req: Given the two records 1 and 2 , choose the one whose IC50 value is lower. Output the label that corresponds to your choice.
Resp: 2

1: COCCOc1ccc(N2CCN(C(=O)C(C)(c3ccccc3)n3ncc4c3nc(N)n3nc(-c5ccco5)nc43)CC2)c(F)c1F (stereo not shown)
2: CCCC(C(=O)N1CCN(c2cc(F)c(OCCOC)cc2F)CC1)n1ncc2c1nc(N)n1nc(-c3ccco3)nc21 (stereo not shown)
3: CC(C(=O)N1CCN(c2cccc(C(=O)NCC3(O)COC3)c2)CC1)(c1ccccc1)n1ncc2c1nc(N)n1nc(-c3ccco3)nc21 (stereo not shown)
4: CC(O)COc1ccc(N2CCN(C(=O)C(c3ccccc3)n3ncc4c3nc(N)n3nc(-c5ccco5)nc43)CC2)cc1 (stereo not shown)
Req: Arrange by IC50, high to low. Order the labels as requested and list them.
Resp: 1, 2, 3, 4
(1: 8.9 nM, 2: 4.9 nM, 3: 3.3 nM, 4: 1.3 nM)

1: CC(C(=O)N1CCN(c2ccc(OCCCN3CCOCC3)cc2)CC1)(c1ccccc1)n1ncc2c1nc(N)n1nc(-c3ccco3)nc21 (stereo not shown)
2: COCCOc1ccc(N2CCN(C(=O)C(C)(c3ccccc3F)n3ncc4c3nc(N)n3nc(-c5ccco5)nc43)CC2)cc1 (stereo not shown)
Req: Given the two records 1 and 2 , choose the one whose IC50 value is lower. Output the label that corresponds to your choice.
Resp: 2

1: CC(C(=O)N1CCN(c2ccccc2C(=O)NC2CCCCC2)CC1)(c1ccccc1)n1ncc2c1nc(N)n1nc(-c3ccco3)nc21 (stereo not shown)
2: Nc1nc2c(cnn2C(C(=O)N2CCc3cc(F)ccc3C2)c2ccccc2)c2nc(-c3ccco3)nn12 (stereo not shown) [Compound B7]
Req: Given the two records 1 and 2 , choose the one whose IC50 value is lower. Output the label that corresponds to your choice.
Resp: 2
(2: 2 nM, 1: 3.8 nM)

a: CC(C)CC(C(=O)N1CCN(c2ccc(F)cc2F)CC1)n1cc2c(nc(N)n3nc(-c4ccco4)nc23)n1 (stereo not shown)
b: COCCOc1ccc(N2CCN(C(=O)C(c3ccccc3F)n3ncc4c3nc(N)n3nc(-c5ccco5)nc43)CC2)cc1 (single isomer, unassigned) [Compound A43a]
Req: Given the two records a and b , choose the one whose IC50 value is lower. Output the label that corresponds to your choice.
Resp: b
(b: 16.1 nM, a: 69.6 nM)

1: COCCOc1ccc(N2CCN(C(=O)C(c3ccccc3)n3ncc4c3nc(N)n3nc(-c5ccco5)nc43)C[C@@H]2C)cc1 (stereo partly shown)
2: CC(C(=O)N1CCN(c2ccc(C(=O)NC3CCCCC3)cc2)CC1)(c1ccccc1)n1ncc2c1nc(N)n1nc(-c3ccco3)nc21 (stereo not shown)
3: COCCOc1ccc(N2CCN(C(=O)C(C(C)C)n3cc4c(nc(N)n5nc(-c6ccco6)nc45)n3)CC2)cc1 (stereo not shown)
4: COCCOc1ccc(N2CCN(C(=O)C(c3ccccc3)n3ncc4c3nc(N)n3nc(-c5ccco5)nc43)CC2C)cc1 (single isomer, unassigned) [Compound A46b]
Req: Arrange the 4 entries by IC50 so the values rise. Order the labels as requested and list them.
Resp: 4, 1, 2, 3

I: COCCOc1ccc(N2CCN(C(=O)C(C)(c3ccccc3)n3cc4c(nc(N)n5nc(-c6ccco6)nc45)n3)CC2)cc1 (single isomer, unassigned) [Compound C25a]
II: CCCCC(C(=O)N1CCN(c2ccc(OCCOC)cc2)CC1)n1ncc2c1nc(N)n1nc(-c3ccco3)nc21 (single isomer, unassigned) [Compound A10b]
III: CN(C)C(=O)c1ccc(N2CCN(C(=O)C(C)(c3ccccc3)n3ncc4c3nc(N)n3nc(-c5ccco5)nc43)CC2)cc1 (stereo not shown)
Req: Arrange by IC50, high to low. Order the labels as requested and list them.
Resp: II, I, III
(II: 143 nM, I: 79.8 nM, III: 5.5 nM)

a: COCCOc1ccc(N2CCN(C(=O)C(C(C)C)n3ncc4c3nc(N)n3nc(-c5ccco5)nc43)CC2)cc1 (stereo not shown)
b: COCCOc1ccc(N2CCN(C(=O)C(C3CC3)n3cc4c(nc(N)n5nc(-c6ccco6)nc45)n3)CC2)cc1 (single isomer, unassigned) [Compound C16b]
Req: Given the two records a and b , choose the one whose IC50 value is lower. Output the label that corresponds to your choice.
Resp: a

Data credit: patent US20210300936A1
